Attribute: ED50 at 1 h
Assay notes: Catalepsy inducing activity (extrapyramidal side-effect)
Parameters: species or system male mice
Condition: mouse, in vivo; oral, one hour later, mice; Table 5
Just the number please, in mg/kg, no unit attached.

Illustrative cases are given below, each with its answer.
CN(C)CCCN1c2ccccc2Sc2ccc(Cl)cc21 [Chlorpromazine, reference compound] ... 18
O=C1[C@@H]2[C@H]3CC[C@H](C3)[C@@H]2C(=O)N1C[C@@H]1CCCC[C@H]1CN1CCN(c2nsc3ccccc23)CC1 (relative stereo) ... 747

# ED50 at 1 h (molecule: O=C(CCCN1CCC(O)(c2ccc(Cl)cc2)CC1)c1ccc(F)cc1 [Haloperidol, reference compound] ) is 3.1

###

Assay notes: in vivo
Condition: mouse, po
Assay readout: ED50 at 1 h (mg/kg)
Just the number please, in mg/kg, no unit attached.

# ED50 at 1 h (compound: O=C(CCCN1CCC(O)(c2ccc(Cl)cc2)CC1)c1ccc(F)cc1 [Haloperidol, reference compound] ) is 4.1

Numbers sourced from patent US5532372A.
